molecular target: T1, human MSLN-FL-his protein (human, UniProt Q13421 296-580); assay: competitive ELISA; coated 2ug/ml F3.51.8
T1 construct: made in HEK293E cells, purified on nickel column; also called hMSLN-FL-his; human MSLN full-length protein; not shown: His tag
T1 sequence (Q13421 other isoform, or with tags, fused parts or gaps): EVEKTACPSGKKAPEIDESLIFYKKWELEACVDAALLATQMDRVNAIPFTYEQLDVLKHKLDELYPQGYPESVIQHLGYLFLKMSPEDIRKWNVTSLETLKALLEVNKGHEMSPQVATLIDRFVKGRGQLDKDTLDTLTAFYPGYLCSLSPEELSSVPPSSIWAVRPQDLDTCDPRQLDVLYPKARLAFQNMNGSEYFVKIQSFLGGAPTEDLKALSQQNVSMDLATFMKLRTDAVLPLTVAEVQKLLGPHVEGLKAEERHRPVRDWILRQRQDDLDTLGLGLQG
Metric: competition rate (%)
Supply the numeric figure in %, leaving out any unit text.

Below, each entry is followed by its recorded competition rate result.
S009-F3.80.22 (antibody, human IgG1, kappa, V domains shown, human-murine chimeric antibody, human IgG1/kappa constant regions) VH: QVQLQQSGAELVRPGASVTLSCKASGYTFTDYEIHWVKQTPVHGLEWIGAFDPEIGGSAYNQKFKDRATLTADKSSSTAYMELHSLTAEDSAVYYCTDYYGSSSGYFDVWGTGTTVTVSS VL: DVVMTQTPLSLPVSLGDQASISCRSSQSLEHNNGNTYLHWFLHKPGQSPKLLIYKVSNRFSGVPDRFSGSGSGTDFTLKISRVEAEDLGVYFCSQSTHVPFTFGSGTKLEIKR | 43
S009-F3.45.21 (antibody, human IgG1, kappa, V domains shown, human-murine chimeric antibody, human IgG1/kappa constant regions) VH: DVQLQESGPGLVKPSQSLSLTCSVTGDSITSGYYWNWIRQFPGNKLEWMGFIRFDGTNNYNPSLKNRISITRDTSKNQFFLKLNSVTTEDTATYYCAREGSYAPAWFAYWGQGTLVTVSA VL: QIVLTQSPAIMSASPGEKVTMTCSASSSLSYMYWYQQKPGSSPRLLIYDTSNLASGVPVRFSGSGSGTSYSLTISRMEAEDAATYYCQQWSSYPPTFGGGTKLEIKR | 96
S009-F3.74.20 (antibody, human IgG1, kappa, V domains shown, human-murine chimeric antibody, human IgG1/kappa constant regions) VH: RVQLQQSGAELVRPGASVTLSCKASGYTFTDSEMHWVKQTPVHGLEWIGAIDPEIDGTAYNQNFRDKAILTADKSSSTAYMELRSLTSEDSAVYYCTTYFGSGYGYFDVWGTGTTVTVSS VL: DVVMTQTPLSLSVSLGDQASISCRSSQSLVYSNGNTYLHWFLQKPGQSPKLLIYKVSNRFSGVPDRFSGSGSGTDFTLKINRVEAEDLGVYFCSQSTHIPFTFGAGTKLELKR | 96

Name the reported competition rate value associated with the binder S009-F4-127.10 (antibody, human IgG1, kappa, V domains shown, human-murine chimeric antibody, human IgG1/kappa constant regions) VH: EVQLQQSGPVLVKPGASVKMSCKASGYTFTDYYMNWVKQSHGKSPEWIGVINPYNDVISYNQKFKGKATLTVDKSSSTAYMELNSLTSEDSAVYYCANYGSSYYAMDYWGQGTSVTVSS VL: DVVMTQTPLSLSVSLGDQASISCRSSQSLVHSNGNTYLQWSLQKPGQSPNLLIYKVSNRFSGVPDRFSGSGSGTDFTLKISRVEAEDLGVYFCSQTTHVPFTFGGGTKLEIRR
87

meta.source: patent US20250250357A1
